Give measured IC50 for each item. Keep answers brief.
Number in nM, nothing else.

Task: Lab note: Interleukin-1 receptor-associated kinase 4 (Homo sapiens) assay, enter IC50 for CC1(C)Cc2cc(NC(=O)c3coc(-c4ccnc(N)c4)n3)c(-c3cncnc3)cc2O1 here
Result: 12.7

Task: Would you please give the reported IC50 of CC1(C)Cc2cc(NC(=O)c3coc(-c4ccnc(N)c4)n3)c(-c3ccc(C(F)(F)F)nc3)cc2O1 with Interleukin-1 receptor-associated kinase 4 (Homo sapiens)?
Result: 25.3

Task: // fetch IC50; item: CC1(C)Cc2cc(NC(=O)c3coc(-c4ccnc(N)c4)n3)c(N3CCN(CCO)CC3)cc2O1 ; system: Interleukin-1 receptor-associated kinase 4 (Homo sapiens)
Sequence (Q9NWZ3 whole entry): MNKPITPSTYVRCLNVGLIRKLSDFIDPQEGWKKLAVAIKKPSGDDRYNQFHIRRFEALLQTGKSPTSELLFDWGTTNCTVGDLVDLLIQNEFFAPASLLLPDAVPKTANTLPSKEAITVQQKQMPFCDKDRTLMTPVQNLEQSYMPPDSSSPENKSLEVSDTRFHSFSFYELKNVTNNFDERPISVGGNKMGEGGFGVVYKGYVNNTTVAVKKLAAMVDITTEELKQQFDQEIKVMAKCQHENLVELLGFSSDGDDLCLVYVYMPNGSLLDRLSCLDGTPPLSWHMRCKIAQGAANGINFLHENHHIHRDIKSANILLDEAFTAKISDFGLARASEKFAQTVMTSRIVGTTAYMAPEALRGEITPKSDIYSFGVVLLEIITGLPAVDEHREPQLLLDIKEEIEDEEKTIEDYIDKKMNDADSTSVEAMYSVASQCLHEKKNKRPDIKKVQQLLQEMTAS
Result: 7.4

Task: Give IC50 only, for CC1(C)Cc2cc(NC(=O)c3cnn4cccnc34)c(N3CCC(CO)CC3)cc2O1 , using Interleukin-1 receptor-associated kinase 4 (Homo sapiens) data.
Result: 2.9

Task: Specify the recorded IC50 for COc1cc(-c2cc3c(cc2NC(=O)c2coc(-c4ccnc(N)c4)n2)CC(C)(C)O3)ccn1 , system: Interleukin-1 receptor-associated kinase 4 (Homo sapiens).
Result: 22.8

Task: Give Interleukin-1 receptor-associated kinase 4 (Homo sapiens) IC50 for the following compound: Cc1ncc(-c2cc3c(cc2NC(=O)c2coc(-c4ccnc(N)c4)n2)CC(C)(C)O3)cn1
Result: 14

Task: Write down measured IC50 (Interleukin-1 receptor-associated kinase 4 (Homo sapiens)) for this compound. CCn1cc(-c2cc3c(cc2NC(=O)c2coc(-c4ccnc(N)c4)n2)CC(C)(C)O3)cn1
Result: 18.5

Task: # return IC50 for CC1(C)Cc2cc(NC(=O)c3cnn4cccnc34)c(N3CCOCC3)cc2O1 , test system: Interleukin-1 receptor-associated kinase 4 (Homo sapiens)
Result: 6.1

Task: Answer briefly: IC50 recorded on Interleukin-1 receptor-associated kinase 4 (Homo sapiens) for Cc1ccc(-c2cc3c(cc2NC(=O)c2coc(-c4ccnc(N)c4)n2)CC(C)(C)O3)cn1
Result: 12.8

Task: Please report the measured IC50 for Cn1cc(-c2cccc(C(=O)Nc3cc4c(cc3N3CCC(CO)CC3)OC(C)(C)C4)n2)cn1 tested on Interleukin-1 receptor-associated kinase 4 (Homo sapiens).
Result: 73.8

Task: Lab note: Interleukin-1 receptor-associated kinase 4 (Homo sapiens) assay, enter IC50 for CC1(C)Cc2cc(NC(=O)c3coc(-c4ccnc(N)c4)n3)c(-c3ccoc3)cc2O1 here
Result: 10.2

Task: State measured IC50 of the compound Cn1cc(-c2cc3c(cc2NC(=O)c2coc(-c4ccnc(N)c4)n2)CC(C)(C)O3)cn1 with Interleukin-1 receptor-associated kinase 4 (Homo sapiens).
Result: 8.7

Task: Please respond with reported IC50 (system Interleukin-1 receptor-associated kinase 4 (Homo sapiens)) for CC1(C)Cc2cc(NC(=O)c3coc(-c4ccnc(N)c4)n3)c(N3CCC(CO)CC3)cc2O1 .
Result: 2.1

Task: Fill: IC50 (Interleukin-1 receptor-associated kinase 4 (Homo sapiens)) for this compound CC1(C)Cc2cc(NC(=O)c3coc(-c4ccnc(N)c4)n3)c(N3CCOCC3)cc2O1
Result: 2.6

These data points were gathered from ChEMBL document CHEMBL5370531.
